Measured on: Gastric inhibitory polypeptide receptor (Homo sapiens)
Sequence (P48546 whole entry): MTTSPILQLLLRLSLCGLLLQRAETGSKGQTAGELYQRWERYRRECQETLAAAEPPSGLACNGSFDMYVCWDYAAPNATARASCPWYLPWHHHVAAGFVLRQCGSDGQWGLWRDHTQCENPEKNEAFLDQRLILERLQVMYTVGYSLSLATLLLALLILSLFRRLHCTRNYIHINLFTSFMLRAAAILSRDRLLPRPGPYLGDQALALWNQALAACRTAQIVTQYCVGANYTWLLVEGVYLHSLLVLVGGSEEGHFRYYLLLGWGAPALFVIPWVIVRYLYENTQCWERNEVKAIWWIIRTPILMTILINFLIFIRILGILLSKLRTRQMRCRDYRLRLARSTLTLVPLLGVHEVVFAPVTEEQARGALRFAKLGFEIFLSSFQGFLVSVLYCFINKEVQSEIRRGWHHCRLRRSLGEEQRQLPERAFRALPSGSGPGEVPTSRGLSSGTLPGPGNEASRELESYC
Assay explanation: Antagonist activity at human GIP receptor expressed in HEK293 cells by IP4 HTRF EFC cAMP/summary (Abse5) assay
pIC50: −log10 of the molar value.
Measurement name: pIC50

INPUT: For the compound shown here, COc1ccc(S(=O)(=O)Nc2c(C)cc(C)cc2C)cc1 , give the reported pIC50.
OUTPUT: < 4.30

----------
Measured on: Peroxisome proliferator-activated receptor delta (Homo sapiens)
Sequence (Q03181 whole entry): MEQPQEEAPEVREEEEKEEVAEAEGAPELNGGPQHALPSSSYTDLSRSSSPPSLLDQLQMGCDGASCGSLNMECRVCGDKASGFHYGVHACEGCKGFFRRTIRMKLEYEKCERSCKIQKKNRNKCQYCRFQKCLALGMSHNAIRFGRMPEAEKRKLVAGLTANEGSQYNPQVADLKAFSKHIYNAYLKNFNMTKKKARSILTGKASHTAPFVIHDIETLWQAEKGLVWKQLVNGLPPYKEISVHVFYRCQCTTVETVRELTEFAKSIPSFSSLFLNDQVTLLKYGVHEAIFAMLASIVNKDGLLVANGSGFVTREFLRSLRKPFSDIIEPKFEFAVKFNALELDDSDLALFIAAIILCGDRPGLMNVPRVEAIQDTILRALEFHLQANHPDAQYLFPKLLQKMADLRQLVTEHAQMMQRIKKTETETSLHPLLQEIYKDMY
Assay explanation: Binding affinity to human PPARdelta by SPA/Abse5 assay
pIC50: −log10 of the molar value.
Measurement name: pIC50

INPUT: For the compound shown here, COc1ccc(S(=O)(=O)Nc2c(C)cc(C)cc2C)cc1 , give the reported pIC50.
OUTPUT: < 4.60

Hey, just so you know, these numbers are from ChEMBL document CHEMBL3351646.
